Data credit: ChEMBL document CHEMBL2429848

- Run description: Antiglycation activity assessed as inhibition of advanced glycation end product formation after 7 days by spectrofluorometric analysis
- Assay type: physicochemical
Give pIC50 for every item shown.
One number for each entry, as −log10 of the molar value.

Worked cases, answers included:
Oc1ccc([C@@H]2Oc3c(c(O)cc4c3[C@@H]3c5c(O)cc6c(c5O[C@](c5ccc(O)c(O)c5)(O4)[C@H]3O)[C@@H]3c4c(O)cc(O)cc4O[C@](c4ccc(O)cc4)(O6)[C@H]3O)C[C@H]2O)cc1    4.76
Oc1ccc([C@H]2Oc3c(c(O)cc4c3[C@@H]3c5c(O)cc(O)cc5O[C@](c5ccc(O)cc5)(O4)[C@H]3O)C[C@@H]2O)cc1    4.47

Shifting focus to the compound that follows.
Quick one: pIC50 of O=C(O[C@@H]1Cc2c(O)cc(O)cc2O[C@@H]1c1ccc(O)c(O)c1)c1cc(O)c(O)c(O)c1 [EPICATECHIN GALLATE] ?
4.82
